Test: in vivo
Settings: BALB/c nude, mouse, in vivo, iv, total radioactivity, % ID/g Tumor
Below, each of the molecules is paired with its reported tissue uptake at 72 h value.
Measurement Type: tissue uptake at 72 h (%ID/g)

C[C@@H](O)[C@H](NC(=O)[C@@H]1CSSC[C@H](NC(=O)[C@@H](Cc2ccccc2)NC(=O)COCCOCCNC(=O)[C@H](CCCCNC(=O)c2cccc(NC(=O)N[C@@H]3CN(C4CCCCC4)c4ccccc4N(CC(=O)C(C)(C)C)C3=O)c2)NC(=O)CN2CCN(CC(=O)O)CCN(CC(=O)O)CCN(CC(=O)O)CC2)C(=O)N[C@@H](Cc2ccc(O)cc2)C(=O)N[C@H](Cc2c[nH]c3ccccc23)C(=O)N[C@@H](CCCCN)C(=O)N[C@@H]([C@@H](C)O)C(=O)N1)C(=O)O [Compound 177Lu-I-37, metal not drawn] :: 21.4
C[C@@H](O)[C@H](NC(=O)[C@@H]1CSSC[C@H](NC(=O)[C@@H](Cc2ccccc2)NC(=O)[C@H](CCCCNC(=O)c2cccc(NC(=O)N[C@@H]3CN(C4CCCCC4)c4ccccc4N(CC(=O)C(C)(C)C)C3=O)c2)NC(=O)COCCOCCNC(=O)CN2CCN(CC(=O)O)CCN(CC(=O)O)CCN(CC(=O)O)CC2)C(=O)N[C@@H](Cc2ccc(O)cc2)C(=O)N[C@H](Cc2c[nH]c3ccccc23)C(=O)N[C@@H](CCCCN)C(=O)N[C@@H]([C@@H](C)O)C(=O)N1)C(=O)O [^177Lu-I-35, metal not drawn] :: 18

====

Assay: in vivo
Conditions: BALB/c nude, mouse, in vivo, iv, total radioactivity, % ID/g Heart
Below, each of the compounds is paired with its reported tissue uptake at 72 h value.
Measurement Type: tissue uptake at 72 h (%ID/g)

C[C@@H](O)[C@H](NC(=O)[C@@H]1CSSC[C@H](NC(=O)[C@@H](Cc2ccccc2)NC(=O)[C@H](CCCCNC(=O)c2cccc(NC(=O)N[C@@H]3CN(C4CCCCC4)c4ccccc4N(CC(=O)C(C)(C)C)C3=O)c2)NC(=O)COCCOCCNC(=O)CN2CCN(CC(=O)O)CCN(CC(=O)O)CCN(CC(=O)O)CC2)C(=O)N[C@@H](Cc2ccc(O)cc2)C(=O)N[C@H](Cc2c[nH]c3ccccc23)C(=O)N[C@@H](CCCCN)C(=O)N[C@@H]([C@@H](C)O)C(=O)N1)C(=O)O [^177Lu-I-35, metal not drawn] :: 0.25
C[C@@H](O)[C@H](NC(=O)[C@@H]1CSSC[C@H](NC(=O)[C@@H](Cc2ccccc2)NC(=O)[C@H](CCCCNC(=O)COCCOCCNC(=O)c2cccc(NC(=O)N[C@@H]3CN(C4CCCCC4)c4ccccc4N(CC(=O)C(C)(C)C)C3=O)c2)NC(=O)CN2CCN(CC(=O)O)CCN(CC(=O)O)CCN(CC(=O)O)CC2)C(=O)N[C@@H](Cc2ccc(O)cc2)C(=O)N[C@H](Cc2c[nH]c3ccccc23)C(=O)N[C@@H](CCCCN)C(=O)N[C@@H]([C@@H](C)O)C(=O)N1)C(=O)O [^177Lu-I-36, metal not drawn] :: 0.47
C[C@@H](O)[C@H](NC(=O)[C@@H]1CSSC[C@H](NC(=O)[C@@H](Cc2ccccc2)NC(=O)COCCOCCNC(=O)COCCOCCNC(=O)[C@H](CCCCNC(=O)c2cccc(NC(=O)N[C@@H]3CN(C4CCCCC4)c4ccccc4N(CC(=O)C(C)(C)C)C3=O)c2)NC(=O)CN2CCN(CC(=O)O)CCN(CC(=O)O)CCN(CC(=O)O)CC2)C(=O)N[C@@H](Cc2ccc(O)cc2)C(=O)N[C@H](Cc2c[nH]c3ccccc23)C(=O)N[C@@H](CCCCN)C(=O)N[C@@H]([C@@H](C)O)C(=O)N1)C(=O)O [Compound 177Lu-I-39, metal not drawn] :: 0.12
C[C@@H](O)[C@H](NC(=O)[C@@H]1CSSC[C@H](NC(=O)[C@@H](Cc2ccccc2)NC(=O)COCCOCCNC(=O)[C@H](CCCCNC(=O)c2cccc(NC(=O)N[C@@H]3CN(C4CCCCC4)c4ccccc4N(CC(=O)C(C)(C)C)C3=O)c2)NC(=O)CN2CCN(CC(=O)O)CCN(CC(=O)O)CCN(CC(=O)O)CC2)C(=O)N[C@@H](Cc2ccc(O)cc2)C(=O)N[C@H](Cc2c[nH]c3ccccc23)C(=O)N[C@@H](CCCCN)C(=O)N[C@@H]([C@@H](C)O)C(=O)N1)C(=O)O [Compound 177Lu-I-37, metal not drawn] :: 0.15
C[C@@H](O)[C@H](NC(=O)[C@@H]1CSSC[C@H](NC(=O)[C@@H](Cc2ccccc2)NC(=O)CN2CCN(CC(=O)O)CCN(CC(=O)O)CCN(CC(=O)O)CC2)C(=O)N[C@@H](Cc2ccc(O)cc2)C(=O)N[C@H](Cc2c[nH]c3ccccc23)C(=O)N[C@@H](CCCCN)C(=O)N[C@@H]([C@@H](C)O)C(=O)N1)C(=O)O [^177Lu-C-1, metal not drawn, reference compound] :: 0.04

====

Assay: in vivo
Conditions: BALB/c nude, mouse, in vivo, iv, total radioactivity, uptake Spleen
Measurement Type: tissue uptake at 24 h (%ID/g)

C[C@@H](O)[C@H](NC(=O)[C@@H]1CSSC[C@H](NC(=O)[C@@H](Cc2ccccc2)NC(=O)[C@H](CCCCNC(=O)COCCOCCNC(=O)COCCOCCNC(=O)c2cccc(NC(=O)N[C@@H]3CN(C4CCCCC4)c4ccccc4N(CC(=O)C(C)(C)C)C3=O)c2)NC(=O)CN2CCN(CC(=O)O)CCN(CC(=O)O)CCN(CC(=O)O)CC2)C(=O)N[C@@H](Cc2ccc(O)cc2)C(=O)N[C@H](Cc2c[nH]c3ccccc23)C(=O)N[C@@H](CCCCN)C(=O)N[C@@H]([C@@H](C)O)C(=O)N1)C(=O)O [Compound I-42, DOTA-K(-OEG-OEG-Z360)-f]CYwKTC]T-OH] :: 0.3

====

Below, each of the compounds is paired with its reported tissue uptake at 4 h value.
Test: in vivo
Conditions: BALB/c nude, mouse, in vivo, iv, total radioactivity, % ID/g Pancreas
Measurement Type: tissue uptake at 4 h (%ID/g)

CCCC[C@H](NC(=O)[C@H](Cc1c[nH]c2ccccc12)NC(=O)CNC(=O)[C@H](Cc1ccc(O)cc1)NC(=O)[C@H](C)NC(=O)[C@@H](CCC(=O)O)NC(=O)[C@@H](CCC(=O)O)NC(=O)[C@@H](CCC(=O)O)NC(=O)[C@@H](CCC(=O)O)NC(=O)[C@@H](CCC(=O)O)NC(=O)[C@@H](CCC(=O)O)NC(=O)CN1CCN(CC(=O)O)CCN(CC(=O)O)CCN(CC(=O)O)CC1)C(=O)N[C@@H](CC(=O)O)C(=O)N[C@@H](Cc1ccccc1)C(N)=O [^177Lu-C-2, metal not drawn, reference compound] :: 0.01
C[C@@H](O)[C@H](NC(=O)[C@@H]1CSSC[C@H](NC(=O)[C@@H](Cc2ccccc2)NC(=O)[C@H](CCCCNC(=O)COCCOCCNC(=O)c2cccc(NC(=O)N[C@@H]3CN(C4CCCCC4)c4ccccc4N(CC(=O)C(C)(C)C)C3=O)c2)NC(=O)CN2CCN(CC(=O)O)CCN(CC(=O)O)CCN(CC(=O)O)CC2)C(=O)N[C@@H](Cc2ccc(O)cc2)C(=O)N[C@H](Cc2c[nH]c3ccccc23)C(=O)N[C@@H](CCCCN)C(=O)N[C@@H]([C@@H](C)O)C(=O)N1)C(=O)O [^177Lu-I-36, metal not drawn] :: 5.66

====

Below, each of the molecules is paired with its reported tissue uptake at 4 h value.
Experiment: in vivo
Settings: BALB/c nude, mouse, in vivo, iv, total radioactivity, % ID/g Lung
Measurement Type: tissue uptake at 4 h (%ID/g)

C[C@@H](O)[C@H](NC(=O)[C@@H]1CSSC[C@H](NC(=O)[C@@H](Cc2ccccc2)NC(=O)COCCOCCNC(=O)COCCOCCNC(=O)[C@H](CCCCNC(=O)c2cccc(NC(=O)N[C@@H]3CN(C4CCCCC4)c4ccccc4N(CC(=O)C(C)(C)C)C3=O)c2)NC(=O)CN2CCN(CC(=O)O)CCN(CC(=O)O)CCN(CC(=O)O)CC2)C(=O)N[C@@H](Cc2ccc(O)cc2)C(=O)N[C@H](Cc2c[nH]c3ccccc23)C(=O)N[C@@H](CCCCN)C(=O)N[C@@H]([C@@H](C)O)C(=O)N1)C(=O)O [Compound 177Lu-I-39, metal not drawn] :: 3.81
C[C@@H](O)[C@H](NC(=O)[C@@H]1CSSC[C@H](NC(=O)[C@@H](Cc2ccccc2)NC(=O)CN2CCN(CC(=O)O)CCN(CC(=O)O)CCN(CC(=O)O)CC2)C(=O)N[C@@H](Cc2ccc(O)cc2)C(=O)N[C@H](Cc2c[nH]c3ccccc23)C(=O)N[C@@H](CCCCN)C(=O)N[C@@H]([C@@H](C)O)C(=O)N1)C(=O)O [^177Lu-C-1, metal not drawn, reference compound] :: 0.63
CCCC[C@H](NC(=O)[C@H](Cc1c[nH]c2ccccc12)NC(=O)CNC(=O)[C@H](Cc1ccc(O)cc1)NC(=O)[C@H](C)NC(=O)[C@@H](CCC(=O)O)NC(=O)[C@@H](CCC(=O)O)NC(=O)[C@@H](CCC(=O)O)NC(=O)[C@@H](CCC(=O)O)NC(=O)[C@@H](CCC(=O)O)NC(=O)[C@@H](CCC(=O)O)NC(=O)CN1CCN(CC(=O)O)CCN(CC(=O)O)CCN(CC(=O)O)CC1)C(=O)N[C@@H](CC(=O)O)C(=O)N[C@@H](Cc1ccccc1)C(N)=O [^177Lu-C-2, metal not drawn, reference compound] :: 0.06
C[C@@H](O)[C@H](NC(=O)[C@@H]1CSSC[C@H](NC(=O)[C@@H](Cc2ccccc2)NC(=O)[C@H](CCCCNC(=O)c2cccc(NC(=O)N[C@@H]3CN(C4CCCCC4)c4ccccc4N(CC(=O)C(C)(C)C)C3=O)c2)NC(=O)COCCOCCNC(=O)CN2CCN(CC(=O)O)CCN(CC(=O)O)CCN(CC(=O)O)CC2)C(=O)N[C@@H](Cc2ccc(O)cc2)C(=O)N[C@H](Cc2c[nH]c3ccccc23)C(=O)N[C@@H](CCCCN)C(=O)N[C@@H]([C@@H](C)O)C(=O)N1)C(=O)O [^177Lu-I-35, metal not drawn] :: 3.44
